experiment: Pharmacokinetics in rats; format: in vivo; settings: rat, plasma, iv, 1 mg/kg, rats, IV 1 mg/kg, Rat -3; read-out: Vss
quantity_name: Vd (L)
A number alone suffices; assume L.

Quick one: Vd of Nc1nc(N[C@H]2C[C@@H]3CC[C@H]2C3)sc1C(=O)c1ccccc1[N+](=O)[O-] (relative stereo) [MC180295] ? 2.76

====

assay: Liver microsome stability assay; type: in vitro ADME, human; conditions: both sexes, pooled liver microsomes, pH 7.4; Human liver microsomes, without NADPH, 60 min; read-out: Stability minus NADPH % Remaining @ 60 min
Kindly state remaining at 1 h, 1 µM for each of the entries shown.
A number alone suffices; assume %.

Quick one: remaining at 1 h, 1 µM of Nc1nc(N[C@H]2C[C@@H]3CC[C@H]2C3)sc1C(=O)c1ccccc1[N+](=O)[O-] [MC180380] ? 88

Can you handle Nc1nc(N[C@@H]2C[C@H]3CC[C@@H]2C3)sc1C(=O)c1ccccc1[N+](=O)[O-] [MC180379] next? 86

====

Test system: SW480
Assay: Growth inhibition (cell counting, day 5)
Assay type: cell-based
Settings: Homo sapiens, Colon
Description: The live-cell assay for GFP reactivation in YB5 cells was done as previously described. Cells were treated with a single dose of drug 24 h after seeding at low density, and GFP fluorescence measured in a Millipore Guava flow cytometer (EMD, Millipore) instrument, or by imaging in a Cytation instrument (Agilent). […] The cells were collected on day 5 by trypsin, suspended in medium, mixed with trypan blue (Thermo Fisher Scientific) (1:1 ratio), and counted using a LUNA II automated cell counter. […]
quantity_name: pIC50
// pIC50 is dimensionless: -log10 of concentration (M)

Quick one: pIC50 of Nc1nc(N[C@H]2C[C@@H]3CC[C@H]2C3)sc1C(=O)c1ccccc1[N+](=O)[O-] (relative stereo) ? 6.81

====

assay: Pharmacokinetics in rats; assay type: in vivo; conditions: rat, plasma, iv, 1 mg/kg, rats, IV 1 mg/kg, Rat -2; read-out: T1/2 (converted)
quantity_name: half-life (h)
A number alone suffices; assume h.

Quick one: half-life of Nc1nc(N[C@H]2C[C@@H]3CC[C@H]2C3)sc1C(=O)c1ccccc1[N+](=O)[O-] (relative stereo) [MC180295] ? 9.98

====

assay: Liver microsome stability assay; assay type: in vitro ADME, dog; conditions: male, beagle, pooled liver microsomes, pH 7.4; Dog liver microsomes, without NADPH, 60 min; read-out: Stability minus NADPH % Remaining @ 60 min
Kindly state remaining at 1 h, 1 µM for each of the entries shown.

Quick one: remaining at 1 h, 1 µM of Nc1nc(N[C@@H]2C[C@H]3CC[C@@H]2C3)sc1C(=O)c1ccccc1[N+](=O)[O-] ? 88%

Can you handle Nc1nc(N[C@H]2C[C@@H]3CC[C@H]2C3)sc1C(=O)c1ccccc1[N+](=O)[O-] next? 88%

====

assay: Pharmacokinetics in rats; format: in vivo; details: rat, plasma, iv, 1 mg/kg, rats, IV 1 mg/kg, Mean; read-out: AUC24hr
quantity_name: AUC(0-t) (ng·h/mL)
A number alone suffices; assume ng·h/mL.

Quick one: AUC(0-t) of Nc1nc(N[C@H]2C[C@@H]3CC[C@H]2C3)sc1C(=O)c1ccccc1[N+](=O)[O-] (relative stereo) ? 679

====

test: Pharmacokinetics in rats; format: in vivo; conditions: rat, plasma, iv, 1 mg/kg, rats, IV 1 mg/kg, Rat -2
quantity_name: clearance (mL/min)
A number alone suffices; assume mL/min.

Quick one: clearance of Nc1nc(N[C@H]2C[C@@H]3CC[C@H]2C3)sc1C(=O)c1ccccc1[N+](=O)[O-] (relative stereo) ? 5.1

====

test: Liver microsome stability assay; format: in vitro ADME; settings: pooled liver microsomes, pH 7.4; Cynomologous Monkey liver microsomes, without NADPH, 60 min; read-out: Stability minus NADPH % Remaining @ 60 min
quantity_name: remaining at 1 h, 1 µM (%)
A number alone suffices; assume %.

Quick one: remaining at 1 h, 1 µM of Nc1nc(N[C@H]2C[C@@H]3CC[C@H]2C3)sc1C(=O)c1ccccc1[N+](=O)[O-] [MC180380] ? 51

Can you handle Nc1nc(N[C@@H]2C[C@H]3CC[C@@H]2C3)sc1C(=O)c1ccccc1[N+](=O)[O-] [MC180379] next? 73

====

assay: Pharmacokinetics in mice; type: in vivo; conditions: mouse, plasma, oral dose of 2.5 mg/kg
quantity_name: bioavailability (%)
A number alone suffices; assume %.

Quick one: bioavailability of Nc1nc(N[C@H]2C[C@@H]3CC[C@H]2C3)sc1C(=O)c1ccccc1[N+](=O)[O-] (relative stereo) [MC180295] ? 26

====

assay: Pharmacokinetics in mice; assay type: in vivo; conditions: mouse, plasma, IV - 1mg/kg
quantity_name: AUC (ng·h/mL)
A number alone suffices; assume ng·h/mL.

Quick one: AUC of Nc1nc(N[C@H]2C[C@@H]3CC[C@H]2C3)sc1C(=O)c1ccccc1[N+](=O)[O-] (relative stereo) ? 110

====

assay: Pharmacokinetics in rats; format: in vivo; conditions: rat, plasma, iv, 1 mg/kg, rats, IV 1 mg/kg, Rat -3
quantity_name: clearance (mL/min)
A number alone suffices; assume mL/min.

Quick one: clearance of Nc1nc(N[C@H]2C[C@@H]3CC[C@H]2C3)sc1C(=O)c1ccccc1[N+](=O)[O-] (relative stereo) [MC180295] ? 4.1

====

test: Pharmacokinetics in rats; type: in vivo; settings: rat, plasma, iv, 1 mg/kg, rats, IV 1 mg/kg, Rat -3; read-out: AUC24hr
quantity_name: AUC(0-t) (ng·h/mL)
A number alone suffices; assume ng·h/mL.

Quick one: AUC(0-t) of Nc1nc(N[C@H]2C[C@@H]3CC[C@H]2C3)sc1C(=O)c1ccccc1[N+](=O)[O-] (relative stereo) ? 879

====

assay: Liver microsome stability assay; type: in vitro ADME; conditions: cynomolgus monkey, pooled liver microsomes, pH 7.4; Cynomologous Monkey liver microsomes, 1 µM
quantity_name: half-life at 1 µM (min)
A number alone suffices; assume min.

Quick one: half-life at 1 µM of Nc1nc(N[C@H]2C[C@@H]3CC[C@H]2C3)sc1C(=O)c1ccccc1[N+](=O)[O-] [MC180380] ? 1.5

Can you handle Nc1nc(N[C@@H]2C[C@H]3CC[C@@H]2C3)sc1C(=O)c1ccccc1[N+](=O)[O-] [MC180379] next? 0.8

====

system: A2058; test: Growth inhibition (cell counting, day 5); assay type: cell-based; conditions: Homo sapiens, Melanoma
quantity_name: IC50 (nM)
A number alone suffices; assume nM.

Form: Entry = Nc1nc(N[C@H]2C[C@@H]3CC[C@H]2C3)sc1C(=O)c1ccccc1[N+](=O)[O-] (relative stereo) | System = A2058 | IC50 = ____ 198

====

test system: BT474; experiment: Growth inhibition (cell counting, day 5); assay type: cell-based; conditions: Homo sapiens, BT-474; Breast
quantity_name: IC50

Quick one: IC50 of Nc1nc(N[C@H]2C[C@@H]3CC[C@H]2C3)sc1C(=O)c1ccccc1[N+](=O)[O-] (relative stereo) [MC180295] ? 80 nM

====

tested on: VACCC257; assay: Growth inhibition (cell counting, day 5); format: cell-based; conditions: Melanoma
quantity_name: pIC50
// pIC50 is dimensionless: -log10 of concentration (M)

Quick one: pIC50 of Nc1nc(N[C@H]2C[C@@H]3CC[C@H]2C3)sc1C(=O)c1ccccc1[N+](=O)[O-] (relative stereo) [MC180295] ? 6.46
